Provide the reported self-cleavage of each item.
B1: Osa-1-4 twister ribozyme (parent)
chain: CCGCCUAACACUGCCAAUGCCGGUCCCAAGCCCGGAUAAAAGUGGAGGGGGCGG

Variants of: B1
Test: self-cleavage, relative activity (ratio to wild type); higher = more cleavage; co-transcriptional
Just the number, please, no unit attached.

Query :: self-cleavage for G19C U24A ?
Result :: 0.04

Query :: Try this variant next: A40U C33A
Result :: 0.07

Query :: Try this variant next: C31A G53U
Result :: 0.03

Query :: Try this variant next: C15G G35U
Result :: 0.3

Query :: Try this variant next: C25U G35U
Result :: 0.72

Query :: Try this variant next: A46C C14U
Result :: 0.03

Query :: Try this variant next: C15A G49C
Result :: 0.04

Query :: Try this variant next: C32U U12C
Result :: 0.08

Query :: Try this variant next: G53U G54A
Result :: 0.25

Query :: Try this variant next: G44U G45A
Result :: 0.1

Query :: Try this variant next: G54C U43C
Result :: 0.6

Query :: Try this variant next: C32U C33U
Result :: 0.06

Query :: Try this variant next: A17U G49U
Result :: 0.22
